- System: K4 kissing-loop RNA reporter
- ASSAY_TEXT: apparent KD of K4 kissing-loop reporter; higher = weaker reporter binding
- COND: Eterna round: R107; input ligand: FMN 200 uM
The sequences listed here are annotated with their apparent KD of K4 kissing-loop reporter.
OBSERVED_PROPERTY: apparent KD of K4 kissing-loop reporter

- CUUAGGAGUGGUGUUGAUUAGGGAGCGGAAGGAGCGCCAAUGAUGGCAGGUAGGUCGCCGGAAUAUAGUGAUGUUAUAUAGAGGG [ExArgA.Q]: 273 nM
- CCGUGGAGUGAUGUUCCACGUUCUACGGAUACCAGUUGUGCCAGCGGCCCUUGGCAGCCGCACCUUGCAGUGAUGUUGUGAGGCU [Same State Theophylline A Gf 6]: 238 nM
- UUUAAAUAUAGUGAUGUUAUAUAACAAUGACGAGGACCGGUACGGCCGCCACUCGAGAGAGAUAAUGGUCUUACAAAUGUAAGUC [AstrosSSTryA#8]: 546 nM

###

- Test system: K4 kissing-loop RNA reporter;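 note: bound reporter read as fluorescence of individual clusters on recovered sequencing chips by microscopy, with normalized cluster intensities fitted with a binding model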
- ASSAY_TEXT: apparent KD of K4 kissing-loop reporter; higher = weaker reporter binding
- COND: Eterna round: R107; input ligand: theophylline 20 uM
apparent KD of K4 kissing-loop reporter vs 200 nM: at or above is yes (1), below is no (0).

- CUUAGGAGUGGUGUUGAUUAGGGAGCGGAAGGAGCGCCAAUGAUGGCAGGUAGGUCGCCGGAAUAUAGUGAUGUUAUAUAGAGGG [ExArgA.Q]: yes (1)
- UAAUAUCCGUCGGCCGCCACUCACUAGUGAUGUUAGAGGAGUGAUGUUCCACGAGUGAUGUUCGAGAGGACCGGGACGGACGAUG [7th]: no (0)
- AAUAAGGUCGCCGAUACCAGCGCGGGCAGAGCAAAGCUCUGCCCGGCAGUGAUGUUGCCGCGCCCUUGGCAGCGGUGGCACGACC [Omei KL Theo B SS C v7]: yes (1)
- GGCUCCUACGCAGGAUAUAGUAGCCGAGAGUGAUGUUCUACGGCGUUUGCCGAUUUAGUCACAGAUCUAGAAGGGUGUAGGAGCC [XFMN-B PiClone]: yes (1)
- AGACUACCACACUGUCAAUAGACAGUGAGCUAGGAUAUGCUGAUAAGCAGAAGGAGUGAUGUUCCUGGGUAGUCAAUAAAAUAAU [FmnAX 13 G29+G67]: yes (1)
- AUUUAAUUAACUGAUACCAGACUUUUUGUUUUGAUAAUUACUAGUGAUGUUAGUGUUUCUGUCCCUUGGCAGCAGUAUCUACUUA [JR_ExcTheophyB_Sub017]: yes (1)

###

Catalogue of sequences with associated apparent KD of MS2 coat protein
- System: MS2 coat protein
- ASSAY_TEXT: apparent KD of MS2 coat protein; designed switch direction (-1 OFF switch, 1 ON switch): -1; higher = weaker reporter binding
- COND: input ligand: FMN 200 uM
OBSERVED_PROPERTY: apparent KD of MS2 coat protein (nM)

- CAAAAGAAAGGAUAUACUUGAGGAUCACCCAAGUAUGCCCGCUGAAGCGGGCCCUUGAGUAGAAGGUUCAUAAA [Ened] (Eterna round: R97, puzzle: Exclusion 3): 33.2
- GCGCCAUCGUGAGAUGGCGUAAUUACAUGAGGAUCACCCAUGUAGGAUAUCGAUUGCUUUGCAGUCGAGAAGGGCAAGGUUUGU [JL ENG3 3.84] (Eterna round: R96, puzzle: Exclusion NG 3): 25.7
- AGGACGAUAGGAUAUACAUGAGGAUCACCCAUGUGCAUAAGAAUAUGCCAAUCCACGCGUAGAAGGAUCAUAAU [Eternabot (Original) Solution 11] (Eterna round: R97, puzzle: Exclusion 3): 65.4
- UUGAAGUCAGGAUAUCGUUAAUUUAGUUGUUUGUAUUAGUUCGAGAAGGGACAUGAGGAUCACCCAUGUAAGUA [Ex4 #47] (Eterna round: R97, puzzle: Exclusion 4): 32.7
- UACACCGCAUGAGGAUCAAACAUGAGGAUCACCCAUGUGUAGCAAGCUUUUUGCUCGUCUUAUAAAUAUGUGGUGUA [Electric Eye 9 - Jieux - Sensor, turn-off variant 1] (Eterna round: R97, puzzle: Sensor, turn-off variant 1): 12.6
- AGGUGUAGAGGAUAUACUGCAAAGCACAUGAGGAUCACCCAUGUCCCUCUAUGAAAUUAAGUAGAAGGCUACACCA [Omei Ex5 C5] (Eterna round: R97, puzzle: Exclusion 5): 88.6
- CUUUUGUGAGGAUAUUCGUAGUAAAUGAAUAAAAUUAUUACGGAGAAGGCACAUGAGGAUCACCCAUGUUCCUU [Mat - Exclusion 4 - Eli Mod - D32] (Eterna round: R97, puzzle: Exclusion 4): 53.2
- UAUAUGUAAGGAUAUCUCGUCAUGGAGGAAACUCCAUGACGAGAGAAGGUACAUGAGGAUCACCCAUGUCUAUU [Mod of Fisker 24 - Jieux - Exclusion 4] (Eterna round: R97, puzzle: Exclusion 4): 117
- GUAACAACUAGAGGAUAUCAGCACGUGUAGUGCUGAGAAGGCUAGAGUUACAUGAGGAUCACCCAUGUCUAGAGAUCAUUAAUU [ENG1/13-A3] (Eterna round: R96, puzzle: Exclusion NG 1): 142
- GCGCACCUACCAAAAGGUAGGCCGACAUGAGGAUCACCCAUGUAGGAUAUCGAUUGCUUUGCAGUCGAGAAGGACAUGAUGCGC [JL ENG3 3.80 Mod 9] (Eterna round: R96, puzzle: Exclusion NG 3): 35.8
- CAGUACUGAGGAUAUACAUGAGGAUCACCCAUGUGUUCCAGCUAGGAAACUAGCAUAAGUAGAAGGCAGUACUG [salish99_ex3_r3_091x] (Eterna round: R96, puzzle: Exclusion 3): 461
- AGCCUACAUGAGGAUCACCCAUGUCAGGAUAUCUCGCGACAUGUCAAGUUCACGUUGCAGAGAAGGGACUCGGG [Ononxe] (Eterna round: R96, puzzle: Exclusion 1): 108
- UGUUGUCGCGCAGGAUAUGCAUGAGGAUCACCCAUGCAAUUAGAGUUAACAUGAGGAUCACCCAUGUAGAAGGGCGGGACAACU [pwkr exNG2 2xF5 1xFMN.5] (Eterna round: R96, puzzle: Exclusion NG 2): 65.1
- AGUAUGUCAGGAUAUCUCGGGUAGCCCACAACGACUACCGAAGAGAAGGGACAUGAGGAUCACCCAUGUACCAU [EX4 B.15] (Eterna round: R97, puzzle: Exclusion 4): 29.9
- AAAUCGGAGGAGGAUAUUGUACAGGAAACGGUGCGAGAAGGUUUCACAUGAGGAUCACCCAUGUCAAAUAGCGA [EX6 #57] (Eterna round: R97, puzzle: Exclusion 6): 21.3
- CUAAUGAUAGGAUAUACAGCGAGAGUCGACUCUGGUGCUCAACAUGAGGAUCACCCAUGUAGAAGGAUCAGACC [EX2 C.23] (Eterna round: R97, puzzle: Exclusion 2): 35.9
- CAUGAUUGGCGAGGAUAUUGAUCUAGUUGGCGACGAGAAGGCGCCUGUCACAUGAGGAUCACCCAUGUGAAUCUGGUGAAAGAG [Ex NG1 #89] (Eterna round: R96, puzzle: Exclusion NG 1): 24.9
- GCGUACUGAGGAUAUACAUGAGGAUCACCCAUGUAACACAGCAUAUAUAGAUAUUUUUGUAGAAGGCAGUAUGC [JR_Ex3_Sub057] (Eterna round: R97, puzzle: Exclusion 3): 40.2
- AUUUGCACGCUGCGGUCCUACAUGAGGAUCACCCAUGUGGUCUGGUGGCGUGGGUCGCCGGACUUGGCUCGUCUUGA [salish99_S_TOV1_R5_032] (Eterna round: R97, puzzle: Sensor, turn-off variant 1): 17.5
